Assay: yeast display, Sf9 membrane polyspecificity reagent, FACS + sequencing; frameworks hold sequencing errors
experimentalEndpoint: polyreactivity (PSR sort gate)

Below are worked cases with known answers.
>  <macromoleculeSequence>
QVQLVESGGGLFQAGGSLRLSCAASGITFAYYAMAWYRQAPGKERELVARISRRGGSTYYADSVKGRFTISRDNAKNTVYLQMNSLKPEDTAVYYCAARVVVPKPYVDGDYWGQGTQVTVSS

>  <result>
high polyreactivity

$$$$
>  <macromoleculeSequence>
QVQLVESGGGLVQAGGSLRLSCAASGSTFWTNAMGWYRQAPGKERELVAGITDTDNHELRRLCEGRFTISRDNAKNTVYVQMNSLKPEDTAVYYCNADDTYYPLGGITGYDYWGQGTQVTVSS

>  <result>
low polyreactivity

$$$$
>  <macromoleculeSequence>
QVQLVESGGGLVQAGGSLRLSCAASGSIFSVYAMGWYRQAPGKERELVAAITRGGNTYYADSVKGRFTISRDNAKNTVYLQMNSLKPEDTAVYYCNAGPYGRFYYRGLGYWGQGTQVTVSS

>  <result>
low polyreactivity

$$$$
>  <macromoleculeSequence>
QVQLVESGGGLVQAGGSLRLSCAASGSTFYKYAMGWYRQAPGKERELVAVITKSGGSTYYADSVKGRFTISRDNEKNTVYLQMNSLKPEDTAVYYCAAEDHYGYNSGYDYWGQGTQVTVSS

>  <result>
high polyreactivity

$$$$

Okay, next one:
In: Return polyreactivity (PSR sort gate) (reported value) for this sequence: QVQLVESGGGLVQAGGRLRLTCAASGSTLPLNAMGWYRQAPGKEREFVASITYSGGNTYYADSVKGRFTISRDNAKNTVYLQMNSLKPEDTAVYYCAVDEYGIWVGWVPYATFGMNYWGQGTQVTVSS
Out: high polyreactivity

* * *

Assay: yeast display, Sf9 membrane polyspecificity reagent, FACS + sequencing; frameworks hold sequencing errors
experimentalEndpoint: polyreactivity (PSR sort gate)

Below are worked cases with known answers.
>  <macromoleculeSequence>
QVQLVESGGGLVQAGGSLRLSCAASGRTFPENAKGWYTQAPGKEREFVAVISSGGGSTTYADSVKGRFTISRDNAKNTVYLQMNSLKPEDTAVYYCATEYYFHGYWITYSWGQGTQVTVSS

>  <polyreactivity (PSR sort gate)>
low polyreactivity

$$$$
>  <macromoleculeSequence>
QVQLVESGGGLVQAGGSLRLSCAASGSTFWPYAMGWYRQAPGKERELVARINSGGNTNYADSVKGRFTISRDNAKNTVYLQMNSLKPEDTAVYYCAVRSLYEPRVYYRWVVGDGNYWGQGTQLTVSS

>  <polyreactivity (PSR sort gate)>
low polyreactivity

$$$$
>  <macromoleculeSequence>
QVQLVESGGGLVQAGGSLRLSCAASGIIFGDNAMGWYRQAPVTERELVAAIDSGGSTYYADSVKGRFTISRDNAKNTVYLQMISLKPEDTAVYYCNAVTAFGYSYAGWDYDQYNYWGQGTEVTVSS

>  <polyreactivity (PSR sort gate)>
low polyreactivity

$$$$
>  <macromoleculeSequence>
QFQLVESGGGLVQAGGSLRISCAASGITLRRNAMGWYRQAPGKEREWVAAISWSGGRTYYADSVKGRFTISRDNAKNTVYLQMNSLKPEDTAVYYCAARGYPLTAFDYWGQGTQVTVSS

>  <polyreactivity (PSR sort gate)>
high polyreactivity

$$$$

Okay, next one:
In: Return polyreactivity (PSR sort gate) (reported value) for this sequence: QVQLVESGGGLVQAGGSLRLSCAASGFTFFYNDMGSYRQAPGKERELVAAINLSGGTTYYADSVKGRFTISRDNAKNTVYLQMNSLIPEDTAVYYCNRASSTPWYRWRYKPFDYWGQGTQVTVSS
Out: high polyreactivity

* * *

Experiment: yeast display, Sf9 membrane polyspecificity reagent, FACS + sequencing; frameworks hold sequencing errors
experimentalEndpoint: polyreactivity (PSR sort gate)

>  <macromoleculeSequence>
QVHLVESGGGLVQAGGSLRLSCAASGSIFSGNAMGWYRQAPGKERELVAAITSSGGNTYYADSVKGRFTISRDNAKNTVYLQMNSLKPADTAVYYCAADGVYWRWYLYTFWMDYWGQGTQVTVSS

>  <polyreactivity (PSR sort gate)>
low polyreactivity

$$$$
>  <macromoleculeSequence>
QVQLVESGGGLVQAGGSLRLSCAASGRIFGLYAMGWYRQAPGKERELVAAISSRGGNTYYADSVKGRFTISRDDAKNTVYLQMNSLKPEDTAVYYCARDSYSLSRTYDSWGQGTQVTVSS

>  <polyreactivity (PSR sort gate)>
high polyreactivity

$$$$
>  <macromoleculeSequence>
QVQLVESGGGLVQAGGSLRISCAASGSTFWYYAMGWYRQAPGKERELVAAINSDDSTNYADSVKGRFTISRDNAKNTVYLQMNSLKPEDTAVYYCNRGFVYSTTGLWRYYDFDYWGQGTQVTVSS

>  <polyreactivity (PSR sort gate)>
low polyreactivity

$$$$
>  <macromoleculeSequence>
QVQLVESGGGLVQAGGSLRLSCAASGRTFRRYVMGWYRQAPGKERELVAAIRWTGGSTYYADSVKGRFTISRDIAKNTVYLQMNSLKPEDTAVYYWAASSYICYGYWGQGTQVTVSS

>  <polyreactivity (PSR sort gate)>
high polyreactivity

$$$$

Okay, next one:
In: Return polyreactivity (PSR sort gate) (reported value) for this sequence: QVQLVESGGGLVQAGGSLRLSCAASGSTLVSNAMGGYRQAAGKERELVAAITSGGSTYYADSVKGRFTISRDNAKNTVYLQMNSRKPEDTAVYYCNADRTRGYQRYDYWGQGTQVTVSS
Out: high polyreactivity

* * *

Assay: yeast display, Sf9 membrane polyspecificity reagent, FACS + sequencing; frameworks hold sequencing errors
experimentalEndpoint: polyreactivity (PSR sort gate)

>  <macromoleculeSequence>
QVHLVETGGCLVQAGGSLRLSCAASGRTFYQNTMGWYRQAPGKERELVAAISSGGSTHYADSVKGRFTISRDNAKNTVYLQMNSLKPEDTAVYYCAKRYFYSYRYGYWGQGTQVTVSS

>  <result>
high polyreactivity

$$$$
>  <macromoleculeSequence>
QVQLVESGGGLVQAGGSLRLTCAASGRTFRGYVKAWSRQAPGKERELVAAISWSGGSTYYADSVKGRFTISRDNAKNSVYLQMKSLKPEDTAVYYCAARRYSYVGGQGSDYWGQGTLVTVSS

>  <result>
high polyreactivity

$$$$
>  <macromoleculeSequence>
QVQLVESGGGLVQAGGSLRLSCAASGSTFEVNAMGWYRQAPGKERELVAAISSSAGDTYYADSVKGRFTISRDNAKNTVYLQMNSLKPEDTAVYYCAAKGFPRSGYPYQAQHMYYWGQGTQVTVSS

>  <result>
low polyreactivity

$$$$
>  <macromoleculeSequence>
QVQLVESGGGLVQAGGSLRLSCAASGRITGIYAMGWYRPAPGKERELVAAITWRGGRTCYADSVKGRFTISRDNAKNSVYLQMNSLKPEDTAVYYCAAELQGAYYFAYYYWGQGTQVTVSS

>  <result>
high polyreactivity

$$$$

Okay, next one:
In: Return polyreactivity (PSR sort gate) (reported value) for this sequence: QVQLVESGGGLGQAGGSLRLSCAASGITFYPNGMGWYRPAPGKEREFVAAITSSGGSTYYADSVKGRFTISRDNAKNTVYLQMNSLKPEDTAVYYCAAQYYPISYYGYGYWGQGTQVTVSS
Out: low polyreactivity

* * *

Assay: yeast display, Sf9 membrane polyspecificity reagent, FACS + sequencing; frameworks hold sequencing errors
experimentalEndpoint: polyreactivity (PSR sort gate)

Below are worked cases with known answers.
>  <macromoleculeSequence>
QDQLVESGGGLVQAGGSLRLSCAASGSTIYAYAMGWYRQAPGKERELVARIRWRGGRTYYADSVKGRFTISRDNAKNTVYLRMNSLKPEDTAVYYCAAYKRRSNGRYWTYDYWGQGTQVTVSS

>  <polyreactivity (PSR sort gate)>
high polyreactivity

$$$$
>  <macromoleculeSequence>
QVQLVESGGGLVQAGGSLRLSCAASGRIFPTYTMGWYRQAPGKERELVAAISGRGGNTYYADSVKGRFTISRDNAKNTVYLQMNSLKPEDTAVYYCAARYPVRNGYWGQGTQVTVSS

>  <polyreactivity (PSR sort gate)>
high polyreactivity

$$$$
>  <macromoleculeSequence>
QVQLVESGGGLVQAGGSLRLSCAASGLIIGVYAMGWYRQAPGKERELVAAITDGGSTYYADSVKGRFTISRDNAKNTVYLQMNSLKPEDTAVYYCNKLYTRVGFTFEYWGQGTQVTVSS

>  <polyreactivity (PSR sort gate)>
low polyreactivity

$$$$
>  <macromoleculeSequence>
QVQLVESGGGLVQAGGSLRLSCASSGRIFSWYTMGWNRQAPGKVSELVPVITSGGTTKYADSEKGRFTISRDNAKNTVYLQMNSLKPEDTAVYYCNVAGRDYAVRWGSFDYWGQGTQVTVSS

>  <polyreactivity (PSR sort gate)>
low polyreactivity

$$$$
>  <macromoleculeSequence>
QVQLVESGGGLVQAGGSLRLCCAACGRIFYAYAMGWYRQAPGKERELVAAISSSGGRTYYADSVKGRFTISRDNAKNTVYLQMNSLKPEDTAVYYSAAVHYYKFEWGQRTQVTVSS

>  <polyreactivity (PSR sort gate)>
high polyreactivity

$$$$
>  <macromoleculeSequence>
QVQLVESGGGLVQAGGSLRLSCAASGLTFYSNAMGWYRQAPGKERELVASISNGGSTNYADSVKGRFTISRDNAKNTVYLQMNSLKPEDTAVYYCAAEYSLRHRRYTFFAEMDYWGQGTQVTVSS

>  <polyreactivity (PSR sort gate)>
low polyreactivity

$$$$
>  <macromoleculeSequence>
QVQLVESGGGLVQAGGSLRLSCAAYGLTFYGYGMGWYRQAPGKERELVASITSGGNTYYADSVKGRFTISRDNAKNTVYLQMNSLKPEDTAVYYCAVTAIALYYSSGYYWGQGTQVTVSS

>  <polyreactivity (PSR sort gate)>
low polyreactivity

$$$$
>  <macromoleculeSequence>
QVQLVESGGGLVQAGGSLRLSCAASGSIFYQYAMGWYRQAPGKERELVAAISRSGGSTYYADSVKGRFTISRDNAKNTVYLQMISLKPEDTAVYYCAARAVRAAYDYWGLGTQVTVSS

>  <polyreactivity (PSR sort gate)>
low polyreactivity

$$$$
>  <macromoleculeSequence>
QVQLVESGGLLVKAGGSLRLSCAASGSIFYLYVMGWYRQAPGIERELVAANTWSGGSTYYADSVKGRFTISRDNAKNTVYLQMNILIPEDTAVYYCAARGYVPYVKYDYWGQGTQVTVSS

>  <polyreactivity (PSR sort gate)>
high polyreactivity

$$$$
>  <macromoleculeSequence>
QVQLVESGGGLVQAGGSLRLSCAASGFTFGYYGMGWYRQAPGKERELVAAISWSGGSTYYADSVKGRFTISRDNEKNTVYLQMNSLKPEDTAVYYCNADYAGFYQRRYIEDDYWGQGTQVTVSS

>  <polyreactivity (PSR sort gate)>
low polyreactivity

$$$$

Okay, next one:
In: Return polyreactivity (PSR sort gate) (reported value) for this sequence: QVQLVESGGGLVQAGGSLRLSCAASGFTFVRNTLGWYRQAPGKERELVATITFSGGSTYYADSVKGRFTISRDNAKNTVYLQMNTLKPEDTAVYYCAAEDWDDGYDYWGQGTQVTVSS
Out: high polyreactivity
